These entries and their values trace back to ChEMBL document CHEMBL3727348.

Tested on: A549
Assay: Cytotoxic activity against human A549 bulk cells incubated for 72 hrs by Cell-titer-Glo luminescence assay
Assay type: functional, cell-based
Conditions: A549, 72 h
READOUT_KIND: pIC50
Lab note — pIC50 values are minus log10 of concentrations in M.

Sample answers from the record:
> print(dat)
                               input.smiles  readout.kind  recorded.measurement
1  CCN(CC)CCNC(=O)c1c(C)[nH]c(/C=C2\C(=O)Nc3cc(-c4ccc(-c5ccccc5)nc4)ccc32)c1C         pIC50                  4.83
2  CCN(CC)CCNC(=O)c1c(C)[nH]c(/C=C2\C(=O)Nc3cc(-c4oc(-c5ccccc5)nc4C)ccc32)c1C         pIC50                  5.13

The measured pIC50 associated with CCN(CC)CCNC(=O)c1c(C)[nH]c(/C=C2\C(=O)Nc3ccc(-c4nc(-c5ccccc5)cs4)cc32)c1C reads 5.32

The measured pIC50 associated with CCN(CC)CCNC(=O)c1c(C)[nH]c(/C=C2\C(=O)Nc3ccc(C4CCN(c5ccccc5)CC4)cc32)c1C reads 4.80
